Target: NK1-Rezeptor (Substanz P-Rezeptor) (Homo sapiens, UniProt P25103)
Construct: expressed in transfected cells; host or cells: human lymphoblastoma cells IM-9
Sequence (P25103 whole entry): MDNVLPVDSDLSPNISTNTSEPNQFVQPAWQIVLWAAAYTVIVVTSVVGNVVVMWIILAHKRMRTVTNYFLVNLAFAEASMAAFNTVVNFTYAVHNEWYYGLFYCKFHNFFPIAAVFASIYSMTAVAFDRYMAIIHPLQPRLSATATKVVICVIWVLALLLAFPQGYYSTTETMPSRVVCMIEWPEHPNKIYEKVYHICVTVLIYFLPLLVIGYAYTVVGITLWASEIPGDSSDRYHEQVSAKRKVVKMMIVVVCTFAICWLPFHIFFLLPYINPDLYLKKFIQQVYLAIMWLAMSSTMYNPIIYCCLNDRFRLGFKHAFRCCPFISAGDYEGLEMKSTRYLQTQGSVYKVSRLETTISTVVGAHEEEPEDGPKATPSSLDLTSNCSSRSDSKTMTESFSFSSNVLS
Experiment: Receptor affinity for the NK1 receptor: displacement of 125I-labelled substance P on IM-9 cells
Type: binding
Conditions: humane Lymphoblastoma-Zellen (IM-9) mit klonierten NK1-Rezeptoren; Verdrängung von 125J-markierter Substanz P; read-out: IC50-Werte
endpoint_label: IC50 (nM)

[[record]]
compound = "CN(Cc1ccccc1)C(=O)[C@H](CC1CCCCC1)NC(=O)[C@@H]1C[C@@H](O)CN1C(=O)c1c[nH]c2ccccc12 [Verb. D]"
endpoint_label = "IC50"
measured_number = 45

